FYI, the data here is from patent US20230256092A1.

- Experimental Target: human CCR8 (human) (UniProt P51685)
- Experiment Description: cell-based or functional assay
API: label(entry) gives TRUE if the entry's IC50 ratio (WT IC50/mutant IC50) is strictly smaller than 0.7; on equality or larger values it gives FALSE.

h10A11 (IGKV4-1/IGHV3-73 T57S) (antibody, name in Kabat numbering, V domains shown) VH: EVQLVESGGGLVQPGGSLKLSCAASGFAFNTYALYWVRQASGKGLEWVGRIRSKSNNYASYYADSVKDRFTISRDDSKNTAYLQMNSLKTEDTAVYYCTRARFYYSDYGYAMDYWGQGTLVTVSS VL: DIVMTQSPDSLAVSLGERATINCRSSKSLLHSNGNTYLYWYQQKPGQPPKLLIYRMSNLASGVPDRFSGSGSGTDFTLTISSLQAEDVAVYYCMQHLEYPLTFGQGTKLEIKR    TRUE
h10A11 (IGKV4-1/IGHV3-73 A60V) (antibody, name in Kabat numbering, V domains shown) VH: EVQLVESGGGLVQPGGSLKLSCAASGFAFNTYALYWVRQASGKGLEWVGRIRSKSNNYATYYVDSVKDRFTISRDDSKNTAYLQMNSLKTEDTAVYYCTRARFYYSDYGYAMDYWGQGTLVTVSS VL: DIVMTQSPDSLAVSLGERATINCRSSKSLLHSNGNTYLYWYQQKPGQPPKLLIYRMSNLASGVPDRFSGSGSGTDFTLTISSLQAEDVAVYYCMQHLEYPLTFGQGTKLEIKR    TRUE
h10A11 (IGKV4-1/IGHV3-73 Y59F) (antibody, name in Kabat numbering, V domains shown) VH: EVQLVESGGGLVQPGGSLKLSCAASGFAFNTYALYWVRQASGKGLEWVGRIRSKSNNYATYFADSVKDRFTISRDDSKNTAYLQMNSLKTEDTAVYYCTRARFYYSDYGYAMDYWGQGTLVTVSS VL: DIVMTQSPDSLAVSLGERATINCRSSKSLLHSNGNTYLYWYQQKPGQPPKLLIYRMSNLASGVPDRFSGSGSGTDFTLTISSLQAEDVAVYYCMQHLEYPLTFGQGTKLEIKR    TRUE
h10A11 (IGKV4-1/IGHV3-73 D61E) (antibody, name in Kabat numbering, V domains shown) VH: EVQLVESGGGLVQPGGSLKLSCAASGFAFNTYALYWVRQASGKGLEWVGRIRSKSNNYATYYAESVKDRFTISRDDSKNTAYLQMNSLKTEDTAVYYCTRARFYYSDYGYAMDYWGQGTLVTVSS VL: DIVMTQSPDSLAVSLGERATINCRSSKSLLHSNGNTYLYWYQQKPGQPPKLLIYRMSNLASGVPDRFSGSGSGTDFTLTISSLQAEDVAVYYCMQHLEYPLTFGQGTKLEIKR    TRUE
h10A11 (IGKV4-1/IGHV3-73 S62T) (antibody, name in Kabat numbering, V domains shown) VH: EVQLVESGGGLVQPGGSLKLSCAASGFAFNTYALYWVRQASGKGLEWVGRIRSKSNNYATYYADTVKDRFTISRDDSKNTAYLQMNSLKTEDTAVYYCTRARFYYSDYGYAMDYWGQGTLVTVSS VL: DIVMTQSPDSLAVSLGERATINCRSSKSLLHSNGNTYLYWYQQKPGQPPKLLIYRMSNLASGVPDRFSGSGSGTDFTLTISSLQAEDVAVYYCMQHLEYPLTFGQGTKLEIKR    FALSE
